Target: T1, PHD finger of PHF23 (aa 338-393), wild type (human, UniProt Q9BUL5 338-393)
T1 construct: human PHF23, PHD domain, aa 338-393, cloned into pGEX 6p-1; 15N- or 13C,15N-labelled for NMR; also called PHF23PHD; WT PHF23PHD; source: E. coli BL21 (DE3) RIL, purified (glutathione Sepharose 4B, GST cleaved, size exclusion chromatography)
T1 sequence (looked up): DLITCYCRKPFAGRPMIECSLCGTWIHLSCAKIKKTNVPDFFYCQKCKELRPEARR
Experiment: other fluorescence titration; intrinsic tryptophan fluorescence, 25 °C; 2.0 µM PHF23PHD with increasing peptide, PBS (pH 6.5), 1 mM TCEP, excitation 295 nm; Kd averaged over three experiments
Conditions: both partners purified
Non-standard residues stand in square brackets, D forms with d. No end group written: not given here. Lys(Me3) = C[N+](C)(C)CCCC[C@H](N)C(=O)O
Readout name: Kd

[[record]]
binder = "ART[Lys(Me3)]QTARKSTG (peptide, UniProt P68431 2-13, looked up, histone H3, residues 1-12, trimethylated on Lys4; source: synthetic peptide (SynPeptide)) [histone H3K4me3 peptide (aa 1-12 of H3K4me3)]"
recorded_value = "2 µM"

